# TARGET_DESC: estrogen receptor alpha (ESR1) (Homo sapiens, UniProt P03372)
# Sequence (P03372 whole entry): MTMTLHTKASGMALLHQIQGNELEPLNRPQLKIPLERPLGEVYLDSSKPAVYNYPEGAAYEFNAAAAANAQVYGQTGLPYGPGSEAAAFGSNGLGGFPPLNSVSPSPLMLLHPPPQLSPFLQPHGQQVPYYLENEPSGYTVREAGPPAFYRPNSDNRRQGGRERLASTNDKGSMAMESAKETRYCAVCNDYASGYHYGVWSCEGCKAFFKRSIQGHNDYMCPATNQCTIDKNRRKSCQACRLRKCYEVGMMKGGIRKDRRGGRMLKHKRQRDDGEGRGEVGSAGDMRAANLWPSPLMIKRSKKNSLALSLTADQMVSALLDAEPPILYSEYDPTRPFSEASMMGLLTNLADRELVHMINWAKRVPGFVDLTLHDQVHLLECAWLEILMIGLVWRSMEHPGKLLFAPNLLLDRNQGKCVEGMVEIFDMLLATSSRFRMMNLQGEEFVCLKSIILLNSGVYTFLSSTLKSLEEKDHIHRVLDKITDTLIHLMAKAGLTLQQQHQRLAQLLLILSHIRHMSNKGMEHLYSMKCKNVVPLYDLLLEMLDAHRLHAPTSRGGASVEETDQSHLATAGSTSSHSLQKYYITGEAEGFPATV
# EXPERIMENTAL_PROTOCOL: cell-based
REPORTED_ENDPOINT: pEC50
FYI, pEC50 means -log10 of a concentration in mol per litre.

Take a look at these entries with their results.
COMPOUND	pEC50
O=C(c1ccc(OCCN2CC(CF)C2)cc1)c1c(-c2ccc(F)c(Cl)c2)sc2cc(O)ccc12 [Example 37]	8.36
CC/C(=C(\c1ccccc1)c1ccc(OCCN2CC(CF)C2)cc1)c1ccccc1 [Example 21]	7.96

[in] Requested field: pEC50. Item: FC[C@@H]1CCN(CCOc2ccc(/C(=C(\c3ncc(C(F)(F)F)cc3Cl)C3CCC3)c3ccc4[nH]nc(F)c4c3)cc2)C1 [Example 27]
[out] 9.07

[in] What value of pEC50 has been recorded for this entry: Cc1c(-c2ccc(O)cc2)n(Cc2ccc(OCCN3CC(CF)C3)cc2)c2ccccc12 [Example 5]
[out] 7.19

[in] I have this compound here, O=C(c1ccc(OCCN2CC(CF)C2)cc1)c1c(-c2ccc(F)cc2)sc2cc(O)ccc12 [Example 10] , and I need its recorded pEC50.
[out] 9.35

[in] I'd like to know its pEC50. The compound in question is Cc1c(-c2ccc(O)cc2)n(Cc2ccc(OCCN3CC(CF)C3)cc2)c2ccc(O)c(F)c12 [Example 48]
[out] 9.18

[in] Would you mind telling me what pEC50 value was observed for Cc1c(-c2ccc(O)c(F)c2)n(Cc2ccc(OCCN3CC[C@@H](CF)C3)cc2)c2ccc(O)cc12 [Example 44] ?
[out] 10.56

[in] Please report the recorded pEC50 for Cc1cc(-c2c(C)c3cc(O)ccc3n2Cc2ccc(OCCN3CC(CF)C3)cc2)ccc1O [Example 41] .
[out] 10.29

[in] Given O=C(c1ccc(OCCN2CC(CF)C2)cc1)c1c(-c2ccc(F)c(F)c2)sc2cc(O)ccc12 [Example 35] , state its recorded pEC50.
[out] 9.26

[in] Entry under review: Oc1ccc(C(=C2CCCCC2)c2ccc(OCCN3CC(CF)C3)cc2)cc1 [Example 18] . Reported pEC50?
[out] 7.92
